soluble fraction (log2) by entry:
- procedure.text: soluble fraction after stress (log2 fold change); higher = more stays soluble; pooled small domains, quantitative proteomics
- experimental.setup: stress: pH 4

Worked cases, soluble fraction (log2) given:
{"item.sequence": "HMGHRQRRARARNRSMLEDIPGLGPKRRQQLLRQFGGLPQLMRAGVAELSQVPGISDSLARKIHAELHPES", "assay.endpoint": "soluble fraction (log2)", "value.observed": -1.87}
{"item.sequence": "HMKGISRVTMELIIDALKKETEPRTVQWIAEKTGLATQTTYRYLQYMVSEQTVEALNVYGKVVSLKAK", "assay.endpoint": "soluble fraction (log2)", "value.observed": 0.153}
{"item.sequence": "HMTTTPAERQRTILRSLNRVDPVSVDALARLTGVSVVTIRRDLSDLASRDLIRRVHGGALLPTR", "assay.endpoint": "soluble fraction (log2)", "value.observed": 0.339}
{"item.sequence": "HMATVHVDGIQYDFSSPEQAKEFAYKWAKKHNLTWEVHGETIHIK", "assay.endpoint": "soluble fraction (log2)", "value.observed": -0.0405}
{"item.sequence": "HMVTKTTYAYERLKREIMDGTLGQGEKLVVNAISQRYQVSPMPIREALLKLEQEGLVQSAPHRGAWVHK", "assay.endpoint": "soluble fraction (log2)", "value.observed": 0.0193}

Q. I'd like to know its soluble fraction (log2). The sequence in question is `HMPGSGELSRRLELAIRDRTAVRVTAAAAGQERSFTLLPVAITSGRLRATDEQAGVQRTLPLSAIVAVEA`
A. -0.135

Q. I'd like to know its soluble fraction (log2). The sequence in question is `HMSVPSLVGKTDSEAQSAIKSAGLKVGTVTYQYSDETEKGYVVSQSPYSGNKVNAGSTVNIVVSKGK`
A. 0.155

Q. I'd like to know its soluble fraction (log2). The sequence in question is `HMNENFPYRLKEMVVVQSRTWPGINKPGGVGQVMKINPEAGTVNVKYVLGGSEKNIELKYVTSNDLNSK`
A. 0.063

====

- procedure.text: soluble fraction after stress (log2 fold change); higher = more stays soluble; pooled small domains, quantitative proteomics
- experimental.setup: stress: pH 4
Quick rule: soluble fraction (log2) of at least -0.6 means Satisfied, below that means Not satisfied.

{"item.sequence": "HMASRSQTEIMHLLSSGLPKHELVTALQSLLGISKPTAYKYLSQDVSIAYDHMVKILEYPPFQRVLYQ", "class": "Not satisfied"}
{"item.sequence": "HMRGGWESLTDREREIAVLAAEGHSNRTIASTLFISDRTVQSHVSRALRALGVDSRTGIPSLVTTATR", "class": "Satisfied"}
{"item.sequence": "HMVSQELIMLGNRIREYRKERGFSQEILAEKSGVSTNTISRIEGGQMAMSVGILQRIVKALGVDANVMLG", "class": "Satisfied"}

Q. Is soluble fraction (log2) at least -0.6? Consider `HMDEDTWKLYKRAYKKYYARYMKGNMSEAAFKAWGEQAAADRDAAIEQLRATTDAALSASIIQQLKEKLNR`
A. Satisfied

Q. Is soluble fraction (log2) at least -0.6? Consider `HMDEPGAGYKWREDVLLRVMASHGIEESLRDDFVRHAVGFDNDDNMYLKKVEIENAAAAWVAN`
A. Not satisfied

Q. Is soluble fraction (log2) at least -0.6? Consider `HMSQLYINATDDGWVIGNLPADAREVLLTTLGGQVVARYHVTAPSLRVKAPRKGVYIVSVETA`
A. Satisfied

Q. Is soluble fraction (log2) at least -0.6? Consider `HMGTISKRINPSGTTVYRAVIRIRKNGYPNFTESRTFSKKSMAAEWVKRREAEIELNPDILFG`
A. Satisfied

Q. Is soluble fraction (log2) at least -0.6? Consider `HMTRAEVQALLEKQAKDFEVEVVHRGWKKTVQTPEFAGWYSQQPAEIKALAESDDPAVAIRMLDLFSGTK`
A. Not satisfied

====

soluble fraction (log2) by entry:
- procedure.text: soluble fraction after stress (log2 fold change); higher = more stays soluble; pooled small domains, quantitative proteomics
- experimental.setup: stress: pH 4
Please reply with the value in numeric form only.

Q. I'd like to know its soluble fraction (log2). The sequence in question is `HMYVKKSSFVKKSLNNYEFKITDNTNDLLIFYKGMLPDLFREEQGIVVEGLIDKNNNIVASKV`
A. -0.0152

Q. I'd like to know its soluble fraction (log2). The sequence in question is `HMGNLASGAYEQIKRRILSLEYLPGSILQERGLAEELGISRTPVREAIHRLSQEGWLKINSRKNIRVR`
A. -0.482

Q. I'd like to know its soluble fraction (log2). The sequence in question is `HMEEYLENLTQSKLLHMLDQLSPAYKTVFTLFVLDELSHEEISKMLNISIGTSKSNLFRARKVMRVLMESE`
A. -0.283

Q. I'd like to know its soluble fraction (log2). The sequence in question is `HMGVDASVDSKLDLLSQVLDSDQVKEQLPEAVLEQLAQNLDRWRSLHEESELQDDDIAELNRLLGLFGLG`
A. -1.67

Q. I'd like to know its soluble fraction (log2). The sequence in question is `HMIIVMSANANAREISEVIARIRAMGYDVHLSHGKERTIIGVIGRGTPIDREQLSLMSGVQQVMPV`
A. -0.109

Q. I'd like to know its soluble fraction (log2). The sequence in question is `HMELPPLEPIDRILVVQQPINIREQPGVLAKKIGRVSSGETLTILAKVSGQDWYFVETDNGGRGYVFKRV`
A. -0.222

Q. I'd like to know its soluble fraction (log2). The sequence in question is `HMQDFEQNLFDGKSIYDRMLSKFSLHNVDVKQLVAHFKRKDTEQFFADIGRGLITSAQMLGFLQT`
A. -0.219

Q. I'd like to know its soluble fraction (log2). The sequence in question is `HMTTGREGLIGAVGTVRQAIAPEGYVFVEGELWRAKSPAGPLEPGTTVRVIAIDGLTLTVMPAE`
A. -0.564

====

- procedure.text: soluble fraction after stress (log2 fold change); higher = more stays soluble; pooled small domains, quantitative proteomics
- experimental.setup: stress: pH 4
assay.endpoint: soluble fraction (log2)
Please reply with the value in numeric form only.

{"item.sequence": "HMSEEKLVFSIPDDIETMRIDKAIALETHLSRAQIAELFKENKILLNSKNSKRSEKVKPGDKISLEFIPKI", "soluble fraction (log2)": -0.0612}

Q. I'd like to know its soluble fraction (log2). The sequence in question is `HMSAQDLIVRRDSARIEARVTEISPTEIRYKRASNPDGPTYVLPLGDVRSIRYANGEEEVFAPA`
A. -0.0969

Q. I'd like to know its soluble fraction (log2). The sequence in question is `HMRAAKSEDTRTRLIEGGMALFGQKGYNATGIKDITDAAGVPKGSFYNYFASKEDFGAEIIHSY`
A. -0.0559

Q. I'd like to know its soluble fraction (log2). The sequence in question is `HMLFGKKYLGKVPNDASGRISLWNDIVKHHQELQNIRAIENFTSDNVTVAQGDTKKAVVVTDYVT`
A. -0.152

====

soluble fraction (log2) by entry:
- procedure.text: soluble fraction after stress (log2 fold change); higher = more stays soluble; pooled small domains, quantitative proteomics
- experimental.setup: stress: pH 4

Q. I'd like to know its soluble fraction (log2). The sequence in question is `HMQEDKSKYLFQRGTAITVLRPAGIVRIGKERVDAVSNGSYIDRGVAVRVIEVEGTRVVVEPVPE`
A. -0.151

====

- procedure.text: soluble fraction after stress (log2 fold change); higher = more stays soluble; pooled small domains, quantitative proteomics
- experimental.setup: stress: pH 4
Parameter class (string): assigned from measured soluble fraction (log2). Ranges: lower band (below -0.4), central band (-0.4 to below -0.05), upper band (-0.05 or more)

{"item.sequence": "HMIPEILNGYTKWGDDEPFEDHAGPFYMKMMPSTGRHLSAFIPEQRHMNGGGFLHGGMLMSFADYALFVI", "class": "lower band"}
{"item.sequence": "HMISDISEIEAIIVEVLKVFPNQLQEYLDGKEKILSFFVGQVMQRTKGRANPSLVNEILKEKIKN", "class": "lower band"}
{"item.sequence": "HMGGLIDQSIQEIIDKYSVPGKKIQKAQRLKIVAEMHTKGIFKMRGGVQQAAQALGVTRYTVYNDLEVMN", "class": "central band"}

Q. Hi, small favor: classify `HMLGKSNAERQLDLILGAIERSITGVSRSKLMQAYHLDSRGATAAFETLEQRGLITRSKSGRTELLIPTRV` by its soluble fraction (log2) when you get a moment.
A. upper band

Q. Hi, small favor: classify `HMLTALTDREEEILVLLAHNLSNKEIAKRLNLSVNTVRNHTSHIYEKLNVTSRRKAITLAQSLHLLPP` by its soluble fraction (log2) when you get a moment.
A. central band

Q. Hi, small favor: classify `HMQPSQTLSATVEFPDRLDRFLALAFPEVSRARFQRLIAEGHVSVEGVPATEIRHKLKAGQRVEAVIPPA` by its soluble fraction (log2) when you get a moment.
A. upper band

Q. Hi, small favor: classify `HMFLPETEVKSFFHRGITKISPSLAMDIADFFRMPFAVILKRALALEVISDEQYRSFMTVKPEHV` by its soluble fraction (log2) when you get a moment.
A. central band

Q. Hi, small favor: classify `HMGPDTVDRTRRFKWVDNEVVVNFGKNAGRTLRDLAENDPGFLRWIVRSDFSDEVRTIANDALMGKFPTRK` by its soluble fraction (log2) when you get a moment.
A. central band

Q. Hi, small favor: classify `HMSDRFVRIVMNDGTVKLGQMISEDADFIRLKTNNLGELNIPKYLVLDMMDLTRSEYVRLSISNAG` by its soluble fraction (log2) when you get a moment.
A. lower band

Q. Hi, small favor: classify `HMALWFDEWKKYQDTIASADLLPDKAERDALIAQAEDRFNYWMDIYPRSASLNHSFDDLYEEHRRKIE` by its soluble fraction (log2) when you get a moment.
A. lower band

Q. Hi, small favor: classify `HMENLQLQQLVKGLPEKMQEIVILRFSQELTMREIADIVNLPMRTVQSQLRLALKILKKEMG` by its soluble fraction (log2) when you get a moment.
A. upper band

Q. Hi, small favor: classify `HMGFSLEQFGTDPDLKKIVENAFERIITASEGRIFKSDFSSNNSALPLEIFSFLIAVILLKLSGMN` by its soluble fraction (log2) when you get a moment.
A. lower band

Q. Hi, small favor: classify `HMAGSTAASKHALALLNTARHSIRDGNLTSAAAEIKQALATSQEQIVITEARSLMTAMEARATTRRATVLQ` by its soluble fraction (log2) when you get a moment.
A. central band
